tested on: M14 melanoma; test: NCI-60 one-dose screen, 48 h (100 = growth as untreated, 0 = no growth, -100 = all killed); conditions: 1 µM
About 83,000 compounds went through this panel and 20% of them were active in at least one assay; those are over-represented in the sample as a whole.
endpoint-name: growth (%)
Numbers only, in %.

cpd-smiles | tested-system | endpoint-name | unit-abbrev | data-value
CC/C(=C(\c1ccc(O)cc1)c1ccc(OCCN(C)C(=O)COCCNC(=O)Cc2ccc3c(c2)CN([C@@H]2CCC(=O)NC2=O)C3=O)cc1)c1ccccc1 | M14 melanoma | growth | % | 82.1
CC/C(=C(/c1ccc(O)cc1)c1ccc(OCCN(C)C(=O)COCCOCCNC(=O)c2ccc3c(c2)CN([C@@H]2CCC(=O)NC2=O)C3=O)cc1)c1ccccc1 | M14 melanoma | growth | % | 89.9
CC/C(=C(\c1ccc(O)cc1)c1ccc(OCCN(C)C(=O)CCOCCNC(=O)c2ccc3c(c2)CN([C@@H]2CCC(=O)NC2=O)C3=O)cc1)c1ccccc1 | M14 melanoma | growth | % | 90.5

Now look at this entry.
Answer with growth of CC/C(=C(/c1ccc(O)cc1)c1ccc(OCCN(C)C(=O)COCCOCCNC(=O)Cc2ccc3c(c2)CN([C@@H]2CCC(=O)NC2=O)C3=O)cc1)c1ccccc1 measured for M14 melanoma.
92.8
